assayed-target: PYR1 K59R T162W (Arabidopsis thaliana, UniProt O49686, K59R/T162W)
Construct: expressed in transfected cells; host or cells: S. cerevisiae Y190
Sequence (O49686 whole entry K59R/T162W): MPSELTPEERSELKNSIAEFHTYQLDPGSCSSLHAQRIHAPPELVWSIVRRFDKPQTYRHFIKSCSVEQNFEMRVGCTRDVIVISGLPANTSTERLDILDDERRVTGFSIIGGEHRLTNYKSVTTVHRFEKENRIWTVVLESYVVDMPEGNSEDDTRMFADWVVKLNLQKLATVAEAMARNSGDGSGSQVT
Sequence (Q9CAJ0 23-511, further chain): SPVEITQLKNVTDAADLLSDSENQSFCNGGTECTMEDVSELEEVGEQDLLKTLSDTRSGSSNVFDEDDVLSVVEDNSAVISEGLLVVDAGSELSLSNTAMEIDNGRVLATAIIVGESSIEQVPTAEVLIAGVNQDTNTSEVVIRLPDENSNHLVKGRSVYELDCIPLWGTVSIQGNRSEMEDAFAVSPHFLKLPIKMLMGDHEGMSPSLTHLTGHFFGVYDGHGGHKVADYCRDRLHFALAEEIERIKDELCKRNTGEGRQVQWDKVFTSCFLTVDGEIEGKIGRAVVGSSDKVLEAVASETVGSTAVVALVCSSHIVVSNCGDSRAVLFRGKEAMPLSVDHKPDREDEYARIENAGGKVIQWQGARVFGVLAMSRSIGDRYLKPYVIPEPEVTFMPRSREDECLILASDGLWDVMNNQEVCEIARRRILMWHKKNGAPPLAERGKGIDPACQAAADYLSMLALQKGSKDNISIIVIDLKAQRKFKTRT
test-name: Y2H Pocket Library Screen (HAB1, X-gal)
Type: cell-based
property-name: Threshold (µM)
Record the value in µM, omitting the unit from your answer.

Incoming: Indicate the recorded Threshold value for this compound: CC1COc2ccccc2N1C(=O)C(Cl)Cl (stereo not shown)
Outgoing: 50

Incoming: Indicate the recorded Threshold value for this compound: N#Cc1c[nH]cc1-c1cccc2c1OC(F)(F)O2
Outgoing: 100

Incoming: Indicate the recorded Threshold value for this compound: N#Cc1c(Cl)cccc1Cl
Outgoing: 100

Incoming: Indicate the recorded Threshold value for this compound: c1ccc2snnc2c1
Outgoing: 100
